Origin of the recorded values: patent US20240116985A1

# Test System: full-length beta-Catenin (Uniprot ID P35222) (Homo sapiens (Human)) (UniProt P35222)
# Sequence (P35222 2-781 limits assumed): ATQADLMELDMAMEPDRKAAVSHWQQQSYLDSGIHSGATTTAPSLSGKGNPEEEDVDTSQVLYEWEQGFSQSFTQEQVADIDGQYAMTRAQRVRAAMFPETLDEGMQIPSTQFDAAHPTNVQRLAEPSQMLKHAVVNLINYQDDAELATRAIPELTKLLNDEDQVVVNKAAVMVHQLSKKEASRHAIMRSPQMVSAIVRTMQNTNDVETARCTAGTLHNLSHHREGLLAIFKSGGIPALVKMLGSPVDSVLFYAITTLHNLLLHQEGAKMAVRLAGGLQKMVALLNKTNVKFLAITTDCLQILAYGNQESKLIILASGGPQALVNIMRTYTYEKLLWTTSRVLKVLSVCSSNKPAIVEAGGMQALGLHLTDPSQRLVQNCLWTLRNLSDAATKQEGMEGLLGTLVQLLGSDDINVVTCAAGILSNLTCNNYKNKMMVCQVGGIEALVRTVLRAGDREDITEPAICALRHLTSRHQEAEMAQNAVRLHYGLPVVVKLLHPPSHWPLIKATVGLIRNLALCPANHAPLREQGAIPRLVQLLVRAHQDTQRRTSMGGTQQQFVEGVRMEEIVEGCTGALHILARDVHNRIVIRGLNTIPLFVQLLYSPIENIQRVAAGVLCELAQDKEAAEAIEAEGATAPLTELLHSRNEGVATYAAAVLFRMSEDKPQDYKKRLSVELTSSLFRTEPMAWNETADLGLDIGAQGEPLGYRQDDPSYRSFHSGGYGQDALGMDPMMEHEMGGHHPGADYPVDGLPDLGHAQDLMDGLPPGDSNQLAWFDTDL
# Procedure Summary: fluorescence polarization competition; 10 nM full-length beta-catenin with 10 nM 5FAM-TCF4 (residues 10-53) probe as competitor
pEC50: −log10 of the molar value. Starred links: 1 amine or outer side, 2 acyl side, 3 side chain; linkers in the order of their positions; H or OH if unused. Positions of bridges follow the written chain, without caps; N, C: chain ends. Non-standard residues stand in square brackets, D forms with d. Primed or numbered codes have the meaning given here. PyrS2″ = (S)-3-amino-1-((pent-4-en-1-yloxy)carbonyl)pyrrolidine-3-carboxylic acid (stapling residue), C=CCCCOC(=O)N1CC[C@@](N[*:1])(C(=O)[*:2])C1; B5(4) = 2,2-bis(4-pentenyl)glycine = 2-amino-2-(pent-4-en-1-yl)hept-6-enoic acid (stitching residue), C=CCCCC(CCCC=C)(N[*:1])C(=O)[*:2]; PyrS2 = (S)-3-amino-1-((pent-4-en-1-yloxy)carbonyl)pyrrolidine-3-carboxylic acid, C=CCCCOC(=O)N1CC[C@@](N[*:1])(C(=O)[*:2])C1; B5(12) = 2-amino-2-(pent-4-en-1-yl)hept-6-enoic acid (two olefin side chains), C=CCCCC(CCCC=C)(N[*:1])C(=O)[*:2]; Bta = N[C@@H](Cc1csc2ccccc12)C(=O)O; αAllylPro = C=CC[C@@]1(C(=O)O)CCCN1; tBuAla = CC(C)(C)C[C@H](N)C(=O)O; 3Thi = N[C@@H](Cc1ccsc1)C(=O)O; Cit = NC(=O)NCCC[C@H](N)C(=O)O
Reported pEC50 values follow for various binders

Binder	pEC50
Ac-[αAllylPro]D[tBuAla][B5(4)]DYAAFN[PyrS2][3Thi][Bta]H-NH2 (staple 1-4, 4-11) [I-843]	6.81
Ac-[αAllylPro]D[tBuAla][B5(4)]D[Cit]AAFN[PyrS2″][3Thi][Bta]H-NH2 (staple 1-4, 4-11) [I-841]	7.92
Ac-[αAllylPro]D[tBuAla][B5(12)]DTAAFN[PyrS2][3Thi][Bta]-NH2 (staple 1-4, 4-11; also: later eluting staple isomer) [I-860]	7.21
Ac-[αAllylPro]D[tBuAla][B5(4)]DQAAFN[PyrS2″][3Thi][Bta]Q-NH2 (staple 1-4, 4-11) [I-838]	7.92
Ac-[αAllylPro]D[tBuAla][B5(4)]DLAAFN[PyrS2][3Thi][Bta]Q-NH2 (staple 1-4, 4-11) [I-846]	7.46
Ac-[αAllylPro]D[tBuAla][B5(12)]DQAAFN[PyrS2][3Thi][Bta]-NH2 (staple 1-4, 4-11) [I-858]	7.47
Ac-[αAllylPro]D[tBuAla][B5(4)]DYAAFN[PyrS2″][3Thi][Bta]Q-NH2 (staple 1-4, 4-11) [I-842]	7.47
Ac-[αAllylPro]D[tBuAla][B5(12)]DHAAFN[PyrS2][3Thi][Bta]-NH2 (staple 1-4, 4-11) [I-863]	7.66
Ac-[αAllylPro]D[tBuAla][B5(12)]DLAAFN[PyrS2][3Thi][Bta]-NH2 (staple 1-4, 4-11) [I-862]	6.91
Ac-[αAllylPro]D[tBuAla][B5(4)]DNAAFN[PyrS2″][3Thi][Bta]H-NH2 (staple 1-4, 4-11) [I-837]	8.30
Ac-[αAllylPro]D[tBuAla][B5(12)]DNAAFN[PyrS2][3Thi][Bta]-NH2 (staple 1-4, 4-11) [I-857]	7.82
Ac-[αAllylPro]D[tBuAla][B5(4)]DTAAFN[PyrS2][3Thi][Bta]H-NH2 (staple 1-4, 4-11) [I-845]	8.15
Ac-[αAllylPro]D[tBuAla][B5(4)]DTAAFN[PyrS2][3Thi][Bta]Q-NH2 (staple 1-4, 4-11) [I-844]	8.22
Ac-[αAllylPro]D[tBuAla][B5(12)]DTAAFN[PyrS2][3Thi][Bta]-NH2 (staple 1-4, 4-11; also: earlier eluting staple isomer) [I-859]	7.44
Ac-[αAllylPro]D[tBuAla][B5(4)]DQAAFN[PyrS2″][3Thi][Bta]H-NH2 (staple 1-4, 4-11) [I-839]	8.15
Ac-[αAllylPro]D[tBuAla][B5(12)]DNAAFL[PyrS2][3Thi][Bta]Q-NH2 (staple 1-4, 4-11) [I-856]	7.77
Ac-[αAllylPro]D[tBuAla][B5(12)]D[Cit]AAFN[PyrS2][3Thi][Bta]-NH2 (staple 1-4, 4-11) [I-861]	7.40
Ac-[αAllylPro]D[tBuAla][B5(12)]DNAAFF[PyrS2][3Thi][Bta]Q-NH2 (staple 1-4, 4-11) [I-855]	7.66
Ac-[αAllylPro]D[tBuAla][B5(12)]DHAAFN[PyrS2][3Thi][Bta]Q-NH2 (staple 1-4, 4-11) [I-864]	7.92
